Source of measurements: patent US8470812B2

Tested on: MDA-MB-231 cancer cells
assay method text: MTS assay, cell growth inhibition
Assay type: cell-based
condition label: MDA-MB-231 cells, 72 h incubation; test concentration not given
Decide using MDA-MB-231, MTS, 72 h (% Inhibition): a value greater than or equal to 90% is true (1), a smaller one is false (0).

{"columns": ["molecule", "assay system", "assigned category"],
 "data": [
  ["c1ccc(CC2CCN(c3ncc4c(n3)Nc3ccccc3-n3nnnc3-4)CC2)cc1", "MDA-MB-231 cancer cells", "false (0)"]
]}

Would you say CC(Nc1ncc2c(n1)Nc1ccccc1-n1nnnc1-2)c1ccc(F)cc1 (stereo not drawn) shows MDA-MB-231, MTS, 72 h (% Inhibition) at minimum 90%?
false (0)

Would you say c1ccc(CNc2ncc3c(n2)Nc2ccccc2-n2nnnc2-3)nc1 shows MDA-MB-231, MTS, 72 h (% Inhibition) at minimum 90%?
false (0)

Would you say CC(Nc1ncc2c(n1)Nc1ccccc1-n1nnnc1-2)c1ccc(Cl)cc1 (stereo not drawn) shows MDA-MB-231, MTS, 72 h (% Inhibition) at minimum 90%?
true (1)

---

Test system: MDA-MB-231 cancer cells
assay method text: MTS assay, cell growth inhibition
Assay type: cell-based
condition label: MDA-MB-231 cells, 72 h incubation; test concentration not given
Each item that follows carries a reported MDA-MB-231, MTS, 72 h (% Inhibition).
Answer shape: numeric part, then the unit.

Solved entries (count: 4):
{"columns": ["compound", "MDA-MB-231, MTS, 72 h (% Inhibition)"],
 "data": [
  ["c1ccc2c(c1)CCCC2Nc1ncc2c(n1)Nc1ccccc1-n1nnnc1-2 (centres unmarked) [Compound 77]", "86%"],
  ["Fc1ccc(F)c(CNc2ncc3c(n2)Nc2ccccc2-n2nnnc2-3)c1 [Compound 59]", "71%"],
  ["Fc1ccc(CN2c3ccccc3-n3nnnc3-c3cnc(NCc4cccnc4)nc32)cc1F [Compound 16]", "30%"],
  ["CC1CCCN1c1ncc2c(n1)Nc1ccccc1-n1nnnc1-2 (centres unmarked) [Compound 68]", "75%"]
]}

Query (compound): c1ccc2c(c1)Nc1nc(NCC3CC3)ncc1-c1nnnn1-2 [Compound 9] ; field requested: MDA-MB-231, MTS, 72 h (% Inhibition)
92%

---

System: MDA-MB-231 cancer cells
assay method text: MTS assay, cell growth inhibition
Assay type: cell-based
condition label: MDA-MB-231 cells, 72 h incubation; test concentration not given
Each item that follows carries a reported MDA-MB-231, MTS, 72 h (% Inhibition).
# value in %; strip the unit string

Solved entries (count: 5):
{"columns": ["molecule", "MDA-MB-231, MTS, 72 h (% Inhibition) / %"],
 "data": [
  ["CC(C)CC(C)Nc1ncc2c(n1)Nc1ccccc1-n1nnnc1-2 (centres unmarked)", 32],
  ["CC(C)(C)OC(=O)N1CCN(c2ncc3c(n2)N(Cc2ccc(F)c(F)c2)c2ccccc2-n2nnnc2-3)CC1", 93],
  ["c1ccc(CCNc2ncc3c(n2)Nc2ccccc2-n2nnnc2-3)cc1", 42],
  ["CC(Nc1ncc2c(n1)Nc1ccccc1-n1nnnc1-2)c1ccccc1 (centres unmarked)", 98],
  ["CC(C)(C)OC(=O)NC1CCCN(c2ncc3c(n2)N(Cc2ccc(F)c(F)c2)c2ccccc2-n2nnnc2-3)C1 (centres unmarked)", 97]
]}

Query (molecule): Fc1ccccc1CNc1ncc2c(n1)Nc1ccccc1-n1nnnc1-2 ; field requested: MDA-MB-231, MTS, 72 h (% Inhibition)
41

Query (molecule): Fc1ccc(CN2c3ccccc3-n3nnnc3-c3cnc(NCc4ccncc4)nc32)cc1F ; field requested: MDA-MB-231, MTS, 72 h (% Inhibition)
102

Query (molecule): Fc1ccc(CN2c3ccccc3-n3nnnc3-c3cnc(N4CCOCC4)nc32)cc1F ; field requested: MDA-MB-231, MTS, 72 h (% Inhibition)
98

---

Tested on: MDA-MB-231 cancer cells
assay method text: MTS assay, cell growth inhibition
Type: cell-based
condition label: MDA-MB-231 cells, 72 h incubation; test concentration not given
parameter measured: MDA-MB-231, MTS, 72 h (% Inhibition) (%)
# value in %; strip the unit string

{"columns": ["compound", "readout unit", "recorded value"],
 "data": [
  ["c1ccc2c(c1)Nc1nc(NCCc3ccncc3)ncc1-c1nnnn1-2", "%", 65],
  ["COc1cc(CNc2ncc3c(n2)Nc2ccccc2-n2nnnc2-3)cc(OC)c1", "%", 33]
]}

Query (compound): c1ccc(CCNc2ncc3c(n2)Nc2ccccc2-n2nnnc2-3)nc1 ; field requested: MDA-MB-231, MTS, 72 h (% Inhibition)
41

Query (compound): CCCNc1ncc2c(n1)Nc1ccccc1-n1nnnc1-2 ; field requested: MDA-MB-231, MTS, 72 h (% Inhibition)
98

Query (compound): CCCN(C)c1ncc2c(n1)Nc1ccccc1-n1nnnc1-2 ; field requested: MDA-MB-231, MTS, 72 h (% Inhibition)
99

Query (compound): c1ccc2c(c1)Nc1nc(NC3CCC3)ncc1-c1nnnn1-2 ; field requested: MDA-MB-231, MTS, 72 h (% Inhibition)
99

Query (compound): c1ccc2c(c1)Nc1nc(NC3CCCC3)ncc1-c1nnnn1-2 ; field requested: MDA-MB-231, MTS, 72 h (% Inhibition)
76

Query (compound): Cc1ccc(CNc2ncc3c(n2)Nc2ccccc2-n2nnnc2-3)cc1 ; field requested: MDA-MB-231, MTS, 72 h (% Inhibition)
39

Query (compound): Fc1ccc(CN2c3ccccc3-n3nnnc3-c3cnc(N4CCNCC4)nc32)cc1F ; field requested: MDA-MB-231, MTS, 72 h (% Inhibition)
97

Query (compound): Clc1ccc(CNc2ncc3c(n2)Nc2ccccc2-n2nnnc2-3)cc1 ; field requested: MDA-MB-231, MTS, 72 h (% Inhibition)
98

Query (compound): COc1cc(CNc2ncc3c(n2)Nc2ccccc2-n2nnnc2-3)cc(OC)c1OC ; field requested: MDA-MB-231, MTS, 72 h (% Inhibition)
78

Query (compound): CCC(C)CNc1ncc2c(n1)Nc1ccccc1-n1nnnc1-2 (centres unmarked) ; field requested: MDA-MB-231, MTS, 72 h (% Inhibition)
99

Query (compound): Clc1ccccc1CNc1ncc2c(n1)Nc1ccccc1-n1nnnc1-2 ; field requested: MDA-MB-231, MTS, 72 h (% Inhibition)
51

Query (compound): CCN1CCN(c2ncc3c(n2)Nc2ccccc2-n2nnnc2-3)CC1 ; field requested: MDA-MB-231, MTS, 72 h (% Inhibition)
90

Query (compound): CN1CCN(c2ncc3c(n2)N(Cc2ccc(F)c(F)c2)c2ccccc2-n2nnnc2-3)CC1 ; field requested: MDA-MB-231, MTS, 72 h (% Inhibition)
58

Query (compound): COc1ccc(OC)c(CNc2ncc3c(n2)Nc2ccccc2-n2nnnc2-3)c1 ; field requested: MDA-MB-231, MTS, 72 h (% Inhibition)
97

Query (compound): COc1ccc(CNc2ncc3c(n2)Nc2ccccc2-n2nnnc2-3)cc1OC ; field requested: MDA-MB-231, MTS, 72 h (% Inhibition)
39
